- Tested on: LipPI12 lipase
- measurement-notes: Organic solvent tolerance of LipPI12 lipase
- Assay type: biochemical, Leucosporodium antarcticum PI12
- conditions: 3 ml enzyme solution + 1 ml solvent, 20° C., 30 min

{"columns": ["substance-smiles", "effect of organic solvent on lipase"],
 "data": [
  ["CCCCCCCCCCCCCCCC", "good stability"],
  ["CCCCCCCCCCCC", "good stability"],
  ["c1ccccc1", "good stability"]
]}

* * *

- Tested on: LipPI12 lipase
- measurement-notes: Effect of metal ions on LipPI12 lipase activity
- Format: biochemical, Leucosporodium antarcticum PI12
- conditions: 1 mM metal ion, 30 min at 20° C.

{"columns": ["substance-smiles", "effect of metal ion on lipase activity"],
 "data": [
  ["[Cl-].[Cl-].[Mg+2]", "toxic effect"],
  ["[Fe+2]", "toxic effect"],
  ["[Na+]", "toxic effect"]
]}
